Reported INHIBITION by item:
system: Plasmodium berghei; assay: Screen against P. berghei liver stage (PbLuc), transformed with Luciferase, at 10uM; assay type: functional, HepG2; details: tested at 10 uM
In all, about 69,000 compounds went through this assay and about 8,600 (12%) showed an effect of 50% or more. The sample as a whole holds a higher share of strong results than the screen did.
Assay endpoint: INHIBITION (%)

>>> reported_value("Fc1ccc(OCCCNC2=NCCCN2)cc1")
35.4
>>> reported_value("CNC(=O)c1cccnc1NCCOc1ccccc1")
-81.6
>>> reported_value("Cc1noc(C)c1CN1CC[C@H]2C[C@H](c3nccs3)O[C@@H]2C1")
40.4
>>> reported_value("Cc1csc([C@@H]2C[C@@H]3CCN(C(=O)c4cccn4C)C[C@H]3O2)n1")
50.7
>>> reported_value("Cc1ccc(CN2CC[C@H]3C[C@@H](c4nc(C5CC5)cs4)O[C@@H]3C2)o1")
63.5
>>> reported_value("Cc1nnc([C@H]2C[C@@H]3CCN(Cc4cc(C)on4)C[C@H]3O2)[nH]1")
35.8
>>> reported_value("Cc1nnc([C@H]2C[C@@H]3CCN(Cc4ccc(C)o4)C[C@H]3O2)[nH]1")
31.7
>>> reported_value("Cc1ccc(CN2CC[C@H]3C[C@H](c4nc(C5CC5)cs4)O[C@@H]3C2)o1")
21.3
>>> reported_value("c1ccc(OCCNC2=NCCCN2)cc1")
77.9
>>> reported_value("Fc1ccc(OCCCNC2=NCCN2)cc1")
54.4
>>> reported_value("Cn1cc(NCCOc2ccc(F)cc2)cn1")
8.09
>>> reported_value("CC(NCCCN1CCCN(C)CC1)C(C)(C)C (stereo not drawn)")
26
>>> reported_value("CCC1CN(Cc2cccc(C(=O)N(C)C)c2)CCN1CCOC (stereo not drawn)")
-34
>>> reported_value("Cc1csc([C@H]2C[C@@H]3CCN(C(=O)c4ccnnc4)C[C@H]3O2)n1")
4.61
>>> reported_value("Cc1cc(CN2CC[C@H]3C[C@@H](c4nccs4)O[C@@H]3C2)no1")
57.9
>>> reported_value("CCOc1ccc(Cl)c(C(=O)N2CCCC(c3ccn[nH]3)C2)n1 (stereo not drawn)")
-10.1
>>> reported_value("COc1c(CNC2CCC(O)CC2)c(C(C)C)nn1C (stereo not drawn)")
-18.8
>>> reported_value("Cc1cc(CN2CC[C@H]3C[C@@H](c4nc(C5CC5)cs4)O[C@@H]3C2)no1")
68.4
